Data provenance: the RNAGym collection of RNA variant scans (doi:10.1073/pnas.2313332121)

B1: TPR t1 (parent)
chain: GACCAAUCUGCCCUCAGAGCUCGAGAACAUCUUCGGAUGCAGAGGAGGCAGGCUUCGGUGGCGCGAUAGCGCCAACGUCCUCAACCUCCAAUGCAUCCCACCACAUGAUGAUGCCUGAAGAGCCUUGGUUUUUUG

variants of: B1; experiment: polymerase ribozyme fitness, log enrichment relative to wild type (log ratio); higher = more active; in vitro selection for triplet polymerase activity
Please mark rule met if the recorded polymerase ribozyme fitness (log ratio) is equal to or greater than -4, and rule not met if it falls below.

MUTATION_CODE | CLASSIFICATION
A41U A46U G63U C115A G120U C123G | rule met
A108U C124A | rule not met
C8A C115U | rule met
C40U C62G | rule met
C13U A75G C76G U133A | rule met
C11U G93A | rule met
C85G G127C | rule met
G17A G128C | rule not met
A29C G52C C114U | rule not met
A37G G45C C89U A95G | rule not met
C15U C34G C49G G69U G120A | rule met
C40G G44U C85U | rule not met
A74U C99G U106A | rule not met
C123A U130A | rule met
A66C C82G | rule met
C13A C88U | rule met
A66U U78C | rule met
C11A A27G | rule not met
A2G C11A C49G G71U C85A U92C | rule met
G110A G135U | rule met
C20A A27C C62U | rule not met
U21C G39C C56A | rule met
A103U U130A | rule not met
C11G G39A C49G C53U G69A A75U G120C | rule met
C15U C99U G120C G122U | rule met
C3U C11U | rule met
C11A G36U G48C | rule met
U9C C11U C101A | rule met
C8G C28G C97A U106A C115U U133G | rule not met
U78C U112A G113A G122C U130C | rule met
G71U C88U U130G U131G | rule met
C72U C86U G117A | rule met
C53U C56U A91U | rule met
G61A A91C C123U | rule met
A26U C82G C97A C98A U112A | rule not met
U54A A108U | rule not met
C8G C13U A16U G71A | rule met
A5C C34U G63C U129G | rule not met
G36U G39C C124G | rule met
U59G G110U G135U | rule met
A46C | rule met
A16U U78A U92A | rule not met
C8U C123A | rule met
C56G C86U | rule met
A16U G60A C62U U112C | rule met
C53U C97U | rule met
C3G G10C C34G G42U G69U C82G C102A U109A | rule not met
A37G C64U C88U A121U | rule met
A43C G69U G110A | rule met
C8G C28A | rule met
C11U G71A | rule met
G42U G52A A75G C101U | rule met
C15U C124U | rule met
U21G G93U A111G U112G | rule met
C49U G58C | rule met
A83C U106C | rule met
C4A C11G G44C U54C | rule met
C22G A43U U106A C115A | rule met
A111G G120A | rule met
C4U A43U U96A | rule met
C56A C124U | rule met
U9A G17U U78C C82G C86G C124U U125C | rule met
G45A C89U U133A | rule met
A6U C72U U96C G117U | rule met
C12A G61C | rule met
C8A C70U C88U | rule met
C12U A75G U92A | rule met
G77A U78C A105C A121C | rule met
A74U A95U | rule met
C70A C88A C89U | rule not met
U9G G57A U112A C123U G128A | rule met
G44C U55A C70U C88G G117C | rule not met
U9A G10U G44U G60A C89G G127C | rule met
A26U C72A U78C A91C A118G A121U U126C | rule not met
C8G G48A G120C U125C | rule met
G71A G122A | rule met
A6C U21A A37G A90G G120U G127U | rule met
G65U A66C | rule not met
A74U C86U | rule met
C64U G135C | rule met
C13A G71U A74G U109A | rule not met
C53G C123A | rule met
C70G U106C | rule met
C4G U9C A43G G47A C70U | rule not met
A18U A43U A83G C89G G110U U125A | rule not met
G117C G135U | rule met
C20U G77A U87A G110A | rule not met
U54G C123G | rule met
C8A C28A G63U G77C C86A U112C | rule not met
